tested_target: human TRPM2 channels (Homo sapiens, UniProt O94759)
Sequence (O94759 whole entry): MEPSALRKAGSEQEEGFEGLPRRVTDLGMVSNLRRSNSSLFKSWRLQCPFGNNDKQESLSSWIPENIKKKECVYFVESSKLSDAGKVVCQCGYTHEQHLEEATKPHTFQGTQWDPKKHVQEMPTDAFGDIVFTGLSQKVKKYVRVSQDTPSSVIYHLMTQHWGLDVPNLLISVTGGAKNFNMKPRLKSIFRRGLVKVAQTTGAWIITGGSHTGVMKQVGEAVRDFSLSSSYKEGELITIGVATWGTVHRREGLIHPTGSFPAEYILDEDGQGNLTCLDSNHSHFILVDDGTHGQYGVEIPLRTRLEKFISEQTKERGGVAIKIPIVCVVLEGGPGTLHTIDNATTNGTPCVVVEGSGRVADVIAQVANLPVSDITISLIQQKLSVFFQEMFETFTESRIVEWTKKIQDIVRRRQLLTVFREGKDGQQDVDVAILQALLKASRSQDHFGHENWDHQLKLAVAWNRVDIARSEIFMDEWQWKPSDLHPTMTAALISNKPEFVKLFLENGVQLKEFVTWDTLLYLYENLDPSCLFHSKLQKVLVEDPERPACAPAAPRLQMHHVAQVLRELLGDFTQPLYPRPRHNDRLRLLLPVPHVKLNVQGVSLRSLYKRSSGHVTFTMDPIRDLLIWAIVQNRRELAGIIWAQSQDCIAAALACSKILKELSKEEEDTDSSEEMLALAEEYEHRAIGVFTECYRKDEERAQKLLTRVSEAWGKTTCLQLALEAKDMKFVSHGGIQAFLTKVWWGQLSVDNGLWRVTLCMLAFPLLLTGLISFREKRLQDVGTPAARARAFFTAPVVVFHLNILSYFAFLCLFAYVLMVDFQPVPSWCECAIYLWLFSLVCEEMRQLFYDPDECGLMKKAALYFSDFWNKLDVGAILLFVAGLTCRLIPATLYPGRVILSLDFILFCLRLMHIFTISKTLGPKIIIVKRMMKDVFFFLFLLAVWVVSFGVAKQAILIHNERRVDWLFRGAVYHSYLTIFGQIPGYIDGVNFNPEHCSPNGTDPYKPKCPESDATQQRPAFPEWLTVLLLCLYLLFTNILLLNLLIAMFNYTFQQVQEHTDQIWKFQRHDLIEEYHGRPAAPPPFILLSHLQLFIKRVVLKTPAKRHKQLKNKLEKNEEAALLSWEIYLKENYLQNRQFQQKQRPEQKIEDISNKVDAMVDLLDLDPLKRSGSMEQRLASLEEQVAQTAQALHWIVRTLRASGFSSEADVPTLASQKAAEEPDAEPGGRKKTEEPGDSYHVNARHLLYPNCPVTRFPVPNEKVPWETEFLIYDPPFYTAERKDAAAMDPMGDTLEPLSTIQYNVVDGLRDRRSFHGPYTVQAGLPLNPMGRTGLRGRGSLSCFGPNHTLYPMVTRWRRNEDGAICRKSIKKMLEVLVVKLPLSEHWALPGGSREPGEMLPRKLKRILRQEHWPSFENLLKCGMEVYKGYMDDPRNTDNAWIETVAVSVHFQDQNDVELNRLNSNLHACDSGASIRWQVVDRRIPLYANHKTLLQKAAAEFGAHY
experimental_details: whole cell patch clamp, inhibition of TRPM2 channel current
condition: HEK293 cells stably expressing human TRPM2, 500 μM ADPR
Exercise: state measured IC50 for each of the compounds provided.

Task: Reported IC50, compound COC(=O)c1cc(C(=O)c2ccc(F)cc2)n2cccc2c1 : ____
Result: 10 to 20 µM

Task: Reported IC50, compound CCN(CC)C(=O)c1cc(C(O)c2ccccc2)n2cccc2c1 (centres unmarked) : ____
Result: 10 to 20 µM

Task: Reported IC50, compound CCN(CC)C(=O)c1cc(C(=O)c2ccccn2)n2cccc2c1 [II-34, N, N-Diethyl-5-pyridylimide-7-formamide] : ____
Result: 1 to 10 µM

Task: Reported IC50, compound CCOC(=O)c1cc(C(=O)c2cccc(Cl)c2)n2cccc2c1 : ____
Result: 1 to 10 µM

Task: Reported IC50, compound CN(C)C(=O)c1cc(C(=O)c2ccccc2)n2cccc2c1 : ____
Result: 10 to 20 µM
